EXPERIMENT: chemical genetic growth profiling, strain panel (AID 1159580);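 further: tested at 20 µM; growth read once vehicle control cultures reached saturation at 30 °C; 1 = growth at the plate median or of vehicle wells; lower values mean less growth of the strain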
STUDY CONDITIONS: S. cerevisiae deletion strains, growth OD, locus YAL026C, strain drs2, stronger effect = lower value
Hit rate of the full screen: of about 5,500 compounds, about 2,000 (36%) were called active. Inconclusive results (about 18%) are left out. The list shows a part of the results.
I'd appreciate it if you could supply normalized growth values for the items below.
One number for each entry.

| COMPOUND | READOUT NUMBER |
| --- | --- |
| CC(CCc1ccccc1)NC(C)C(O)c1ccc(O)cc1 (configuration not stated) | 0.995 |

// each listed compound needs a value for normalized growth
1. CC(=O)[C@H]1CCC2C3CCC4=CC(=O)CC[C@]4(C)C3CC[C@@]21C (some centres not stated)
2. COCCc1ccc(OCC(O)CNC(C)C)cc1 (configuration not stated)
3. COc1ccc2cc([C@H](C)CO)ccc2c1

Data returned:
1: 0.936; 2: 1.01; 3: 1.01

---

EXPERIMENT: chemical genetic growth profiling, strain panel (AID 1159580)
STUDY CONDITIONS: S. cerevisiae deletion strains, growth OD, locus YKL048C, strain ELM1, stronger effect = lower value
About 2,000 (36%) of roughly 5,500 compounds were called active. Inconclusive results (about 18%) are left out. The list shows a part of the results.
OBSERVED PROPERTY: normalized growth
Answers are plain numbers.

Use the examples below as a reference point.
| COMPOUND | OBSERVED PROPERTY | READOUT NUMBER |
| --- | --- | --- |
| Cc1nnsc1C(=O)Nc1cc(C(F)(F)F)cc(C(F)(F)F)c1 | normalized growth | 0.993 |
| O=S(=O)(Nc1cccc(CCc2ccccn2)c1)c1cc(Cl)c(Cl)cc1Cl | normalized growth | 0.97 |
| Cc1cc(Cl)ccc1NNC(=O)c1snnc1C | normalized growth | 0.935 |
| Cc1ccc(OCC2SCCN2C(=O)c2ccc(C(F)(F)F)cc2)c([N+](=O)[O-])c1 (configuration not stated) | normalized growth | 1 |
| CCOC(=O)CSC(=S)NCc1ccc(C)cc1 | normalized growth | 0.944 |
| CS(=NC(=O)c1cccc(Cl)c1)c1ccc(OC(=O)c2ccc(Cl)cc2)cc1 (configuration not stated) | normalized growth | 0.945 |

I'm hoping you can list normalized growth for every compound here, please.
1. O=c1c(Sc2ccc(Cl)cc2)c(Sc2ccc(Cl)cc2)c1=O
2. Cc1cc(NNC(=O)c2ccccc2Cl)nc2c1c(C)nn2C
3. COc1cc(NC(=S)N(C)C)c(OC)cc1Cl
4. COc1ccc(CN2CSC(=S)N(Cc3ccc(OC)cc3)C2)cc1

Data returned:
[0.6, 0.964, 0.991, 0.958]

Please give normalized growth, item by item, for the list that follows.
1. Cc1ccc(Sc2c(Sc3ccc(C)cc3)c(=O)c2=O)cc1
2. Nc1ccccc1SCc1c(Cl)cccc1Cl
3. COc1ccc(/C=C2\CSc3ccc(F)cc3C2=O)cc1

Data returned:
1. 0.599
2. 0.939
3. 0.949

---

Would you kindly list normalized growth for each of these molecules?
EXPERIMENT: chemical genetic growth profiling, strain panel (AID 1159580)
STUDY CONDITIONS: S. cerevisiae deletion strains, growth OD, locus YJR075W, strain HOC1, stronger effect = lower value
In all, about 5,500 compounds went through this assay and about 2,000 (36%) were called active. Another 18% or so got no clear call; they are omitted. Some of the results follow.
Answers are plain numbers.

Example entries begin here.
| MOLECULE | normalized growth |
| --- | --- |
| COc1ccccc1N1CCN(S(=O)(=O)c2cc(C)c(Cl)cc2C)CC1 | 0.989 |
| Ic1ccc(I)s1 | 1.02 |
| C[C@@H]1O[C@@H](O[C@H]2C[C@@H](O)[C@]3(CO)[C@H]4[C@H](O)C[C@]5(C)[C@@H](C6=CC(=O)OC6)CC[C@]5(O)[C@@H]4CC[C@]3(O)C2)[C@H](O)[C@H](O)[C@H]1O | 0.997 |

Hi team, please reply with normalized growth for each item in this list.
1. COc1ccc(OC)c(C(O)C(C)N)c1 (stereo not given)
2. CC1=C(OS(=O)(=O)c2cc(C)c(Cl)cc2Cl)C(=O)CC1

Data returned:
0.999
0.984

---

EXPERIMENT: chemical genetic growth profiling, strain panel (AID 1159580);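 further: tested at 20 µM; growth read once vehicle control cultures reached saturation at 30 °C; 1 = growth at the plate median or of vehicle wells; lower values mean less growth of the strain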
STUDY CONDITIONS: S. cerevisiae deletion strains, growth OD, locus YBR021W, strain FUR4, stronger effect = lower value
In all, about 5,500 compounds went through this assay and about 2,000 (36%) were called active. Another 18% or so got no clear call; they are omitted. The list shows a part of the results.
OBSERVED PROPERTY: normalized growth
Answers are plain numbers.

Examples with their reported normalized growth follow.
| COMPOUND | OBSERVED PROPERTY | READOUT NUMBER |
| --- | --- | --- |
| COc1cc2c(cc1OC)C1C(=O)c3ccc4c(c3OC1CO2)CCC(C)(C)O4 (stereo not drawn) | normalized growth | 0.985 |
| CCN(CC)CCCC(C)Nc1ccnc2cc(Cl)ccc12 (stereo not drawn) | normalized growth | 0.976 |
| CC1=C(/C=C/C(C)=C/C=C/C(C)=C/C=C/C=C(C)/C=C/C=C(C)/C=C/C2=C(C)C(=O)C(O)CC2(C)C)C(C)(C)CC(O)C1=O (stereo not drawn) | normalized growth | 0.962 |
| CCCCCCCCCCCCCCCC(=O)OC/C=C(C)/C=C/C=C(C)/C=C/C1=C(C)CCCC1(C)C | normalized growth | 0.977 |
| C=C1C2CC[C@H]3[C@]4(C)C[C@H](OC5OC(CO)C(OS(=O)(=O)O)C(OS(=O)(=O)O)C5OC(=O)CC(C)C)C[C@@H](C(=O)O)[C@H]4CC[C@]3(C2)[C@H]1O (stereo partly drawn) | normalized growth | 1.02 |
| COc1cc2c(cc1OC)[C@@H]1C(=O)c3ccc(O)c(CC=C(C)C)c3O[C@@H]1CO2 | normalized growth | 0.989 |
| CC1=C(/C=C/C(C)=C/C=C/C(C)=C/C=C/C=C(C)/C=C/C=C(C)/C=C/C23OC2(C)CC(O)CC3(C)C)C(C)(C)CC(O)C1 (stereo not drawn) | normalized growth | 1 |

Consider now this further compound.
Form: compound = CCN(CC)CCCC(C)Nc1c2ccc(Cl)cc2nc2ccc(OC)cc12 (stereo not drawn) ; normalized growth = 0.89

---

EXPERIMENT: chemical genetic growth profiling, strain panel (AID 1159580);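 further: tested at 20 µM; growth read once vehicle control cultures reached saturation at 30 °C; 1 = growth at the plate median or of vehicle wells; lower values mean less growth of the strain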
STUDY CONDITIONS: S. cerevisiae deletion strains, growth OD, locus YJL168C, strain set2, stronger effect = lower value
In all, about 5,500 compounds went through this assay and about 2,000 (36%) were called active. Another 18% or so got no clear call; they are omitted. The list shows a part of the results.
OBSERVED PROPERTY: normalized growth
One number for each entry.

Known results for compounds:
| COMPOUND | OBSERVED PROPERTY | READOUT NUMBER |
| --- | --- | --- |
| C[C@]12CCC(=O)C=C1CCC1C2CC[C@@]2(C)C1CC[C@@H]2O (stereo not given in full) | normalized growth | 1.02 |
| CN(C)CC/C=C1\c2ccccc2Sc2ccc(Cl)cc21 | normalized growth | 1.02 |
| CC[C@H](/C=C/C(C)C1CCC2C3CCC4=CC(=O)CC[C@]4(C)C3CC[C@]12C)C(C)C (stereo not given in full) | normalized growth | 1 |
| CC1/C(=N\O)C[C@@H]2C[C@H]1C2(C)C (stereo not given in full) | normalized growth | 1.01 |
| CNCCc1ccccn1 | normalized growth | 1.01 |

The following compounds each have a reported value; give each one's normalized growth.
1. COP(=O)(OC)OC=C(Cl)Cl
2. C[C@@H]1[C@H]2[C@H](O[C@@H]3O[C@H](CO)[C@@H](O)[C@H](O)[C@H]3O)OC=C(C(=O)O)[C@H]2C[C@@H]1O
3. CC1=C(CC(=O)O)c2cc(F)ccc2/C1=C\c1ccc(S(C)=O)cc1 (stereo not given)
4. CC(N)CCCC(C)(C)O (stereo not given)
5. COc1cc(NS(=O)(=O)c2ccc(N)cc2)nc(OC)n1
6. CCC(=O)O[C@H]1CCC2C3CCC4=CC(=O)CC[C@]4(C)C3CC[C@@]21C (stereo not given in full)
7. CCOC(=O)C(=O)C1(C(=O)OCC)Oc2cc(OC)cc(OC)c2C(=O)C1c1ccccc1 (stereo not given)

Data returned:
1. 0.981
2. 1.01
3. 1.02
4. 0.997
5. 0.989
6. 0.983
7. 0.966

---

EXPERIMENT: chemical genetic growth profiling, strain panel (AID 1159580);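 further: tested at 20 µM; growth read once vehicle control cultures reached saturation at 30 °C; 1 = growth at the plate median or of vehicle wells; lower values mean less growth of the strain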
STUDY CONDITIONS: S. cerevisiae deletion strains, growth OD, locus YHR030C, strain SLT2, stronger effect = lower value
Screen size: about 5,500 compounds; about 2,000 (36%) were called active. Inconclusive results (about 18%) are left out. The list shows a part of the results.
Quick rule for you: normalized growth under 0.9 gets y, anything else gets n.

// known answers, use as guide
| COMPOUND | CLASSIFICATION |
| --- | --- |
| Cc1ccc(-c2csc(-c3cccnc3)n2)c(C)c1 | y |
| C=Cc1c(C)c2cc3nc(c4c5[nH]c(cc6nc(cc1[nH]2)C(C)=C6CC)c(C)c5C(=O)[C@@H]4C(=O)OC)[C@@H](CCC(=O)OC/C=C(\C)CCCC(C)CCCC(C)CCCC(C)C)[C@@H]3C (stereo partly specified) | n |
| Cc1nnsc1C(=O)Nc1cc(C(F)(F)F)cc(C(F)(F)F)c1 | n |
| COc1ccc(CN2C(=O)CSC2c2ccccn2)cc1 (stereo unspecified) | n |
| COc1ccc(S(=O)(=O)Nc2ccccc2Oc2ccc(Cl)cc2Cl)cc1OC | n |

Continue with the next compound.
Data request: Below 0.9 on normalized growth? Entry CC(C)(C)c1ccc(-c2nc(-c3cc(C(C)(C)C)c(O)c(C(C)(C)C)c3)cs2)cc1
Data returned: n
